biological target: homomeric RETα channels (α subunits of the bovine rod photoreceptor CNG channel) (Bos taurus); conditions: read-out: apparent K i for genistein; closed channels
Sequence (Q00194 whole entry): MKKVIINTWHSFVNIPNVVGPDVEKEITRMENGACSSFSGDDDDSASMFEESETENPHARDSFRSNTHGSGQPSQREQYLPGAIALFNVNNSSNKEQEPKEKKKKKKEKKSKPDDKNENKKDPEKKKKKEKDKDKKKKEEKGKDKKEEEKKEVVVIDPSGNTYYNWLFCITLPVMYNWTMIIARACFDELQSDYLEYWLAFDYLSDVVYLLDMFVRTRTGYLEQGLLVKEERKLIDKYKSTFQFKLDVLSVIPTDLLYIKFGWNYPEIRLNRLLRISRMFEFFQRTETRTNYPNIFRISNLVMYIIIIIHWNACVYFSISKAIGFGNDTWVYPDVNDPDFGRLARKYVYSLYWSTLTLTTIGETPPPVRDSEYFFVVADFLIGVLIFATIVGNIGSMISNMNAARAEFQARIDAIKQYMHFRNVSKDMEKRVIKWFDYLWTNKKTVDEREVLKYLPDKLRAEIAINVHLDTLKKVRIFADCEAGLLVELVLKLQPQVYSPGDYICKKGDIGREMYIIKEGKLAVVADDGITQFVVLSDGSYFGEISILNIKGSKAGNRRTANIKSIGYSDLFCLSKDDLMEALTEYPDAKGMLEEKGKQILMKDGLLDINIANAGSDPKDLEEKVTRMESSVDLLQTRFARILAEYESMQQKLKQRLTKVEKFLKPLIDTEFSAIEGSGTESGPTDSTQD
reported property: pKi
Answers are plain numbers, as −log10 of the molar value.

I would be grateful if you could share the reported pKi for O=c1c(-c2ccc(O)cc2)coc2cc(O)cc(O)c12 [genistein] . 5.40
